# TARGET ENTITY: anti-CD28 Fab (SEQ ID NOs: 202, 203)
# Sequence (VH, as listed by the source, chain 1 of 2): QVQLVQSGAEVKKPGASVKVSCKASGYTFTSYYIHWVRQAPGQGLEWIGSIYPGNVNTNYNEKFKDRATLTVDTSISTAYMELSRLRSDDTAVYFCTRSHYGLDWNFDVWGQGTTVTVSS
# Sequence (VL, as listed by the source, chain 2 of 2): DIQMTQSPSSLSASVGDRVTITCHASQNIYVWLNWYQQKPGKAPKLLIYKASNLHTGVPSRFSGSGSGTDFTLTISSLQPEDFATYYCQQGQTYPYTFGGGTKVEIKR
# METHOD NOTES: phage ELISA, Fab on plate, CD28 antigen as competitor;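 note: wells pre-incubated with CD28 antigen in blocking buffer (reference: blocking buffer only) before adding crude clonal phage supernatant, bound phage read with HRP-coupled anti-M13 antibody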
Give measured Anti-CD28 Fab signal in the presence of CD28 for each item. Keep answers brief.
Provide a numeric answer; units are not to be included.

Reported Anti-CD28 Fab signal in the presence of CD28 of SCSAGATYQWPYCF [Phage-1176] : 0.06

Reported Anti-CD28 Fab signal in the presence of CD28 of SCAAGATWKWPECL [Phage-1181] : 0.07

Reported Anti-CD28 Fab signal in the presence of CD28 of PCSDGVAYPWPYCV [Phage-1191] : 0.06

Reported Anti-CD28 Fab signal in the presence of CD28 of LCAAGAAWEWPMCF [Phage-1167] : 0.06
